Assay: PK test on cynomolgus monkeys
Assay type: in vivo
Details: male, cynomolgus monkey, plasma, po, 2.5 mg/kg
quantity-kind: Tmax (h)
Respond with the bare value in h.

>>> measured_number("COC(=O)C1=C(CN2CCN3C(=O)N(c4ccc(C(=O)O)cc4)C[C@@H]3C2)NC(c2nccs2)=N[C@H]1c1ccc(F)cc1Cl [Control compound, reference compound]")
1.5

Query: # return recorded Tmax for input `COC(=O)C1=C(CN2CCN3C(=O)N(c4ccc(C(=O)O)c(F)c4)C[C@@H]3C2)NC(c2nccs2)=N[C@H]1c1ccc(F)cc1Cl`
Response: 0.5

###

The following compounds are listed with their measured Tmax values.
Assay: PK test on cynomolgus monkeys
Format: in vivo
Conditions: male, cynomolgus monkey, plasma, iv, 0.5 mg/kg

>>> result("COC(=O)C1=C(CN2CCN3C(=O)N(c4ccc(C(=O)O)cc4)C[C@@H]3C2)NC(c2nccs2)=N[C@H]1c1ccc(F)cc1Cl [Control compound, reference compound]")
"4.98 min"

Now take the following compound into account.
Query: # return recorded Tmax for input COC(=O)C1=C(CN2CCN3C(=O)N(c4ccc(C(=O)O)c(F)c4)C[C@@H]3C2)NC(c2nccs2)=N[C@H]1c1ccc(F)cc1Cl [Example 2]
Response: 4.98 min
